Where do the numbers come from? From the supplement of paper PMC6555819.

System: RARa homodimer (NR concentration 270 nM)
protocol.notes: PBM binding z-score (relative to random genomic background probes); higher = stronger binding; sequences stand for … in GC…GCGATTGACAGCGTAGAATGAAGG
Lab note: compare PBM binding z-score against 0.2. Equal or greater, write y. Smaller, write n.

### Prompt PBM binding z-score >= 0.2 for `CGAACTAGGTCACCAGGACATTGAAGAGGTTGGA` ?
### Response y

### Prompt Could you tell me if the measured PBM binding z-score of `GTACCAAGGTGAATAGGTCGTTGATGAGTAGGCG` reaches 0.2 or more?
### Response n

### Prompt # check: PBM binding z-score of `CCTTACGGGTCAGTGACAGGTTATAGCATTTGGA` is greater than or equal to 0.2
### Response y

### Prompt Textbook exercise: given the entry `TCGAGTAGGTGACGGGGGCATTCAGGGATGAAGA` , state whether its PBM binding z-score is greater than or equal to 0.2.
### Response y

### Prompt Determine whether this sequence has PBM binding z-score no lower than 0.2: `CGAACTAGGTCACCAGTACAGTGAAGAGGTTGGA`
### Response y

### Prompt In plain terms: is recorded PBM binding z-score at least 0.2 for `TCTCGGAGGACACGAAAGGGCAGAGCTCGACATC` ?
### Response n

### Prompt Check if PBM binding z-score >= 0.2 (inclusive). Item: `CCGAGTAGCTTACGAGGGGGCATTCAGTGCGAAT`
### Response n

### Prompt Does the reported PBM binding z-score for `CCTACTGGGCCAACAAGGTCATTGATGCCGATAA` fall at or above the 0.2 mark?
### Response n

### Prompt # bool: PBM binding z-score of `CGTCCAAGGTCATAAGAGGTCAGTGAAGACAGAT` >= 0.2
### Response y

### Prompt Given the entry `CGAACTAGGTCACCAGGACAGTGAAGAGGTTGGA` , answer whether its PBM binding z-score meets or surpasses 0.2.
### Response y

### Prompt Is it the case that `TGTCAAAGCTCAAAGGTAACGTAAGTATCCACAC` has PBM binding z-score reaching or exceeding 0.2?
### Response n

### Prompt Entry `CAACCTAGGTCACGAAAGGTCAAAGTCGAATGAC` : is its PBM binding z-score no less than 0.2?
### Response y
